- experiment.notes: self-splicing fitness, log relative to wild type (ln ratio); higher = more splicing; Tetrahymena group I intron in knt gene, E. coli kanamycin selection, DiMSum; sequences stand for … in CUCUCU…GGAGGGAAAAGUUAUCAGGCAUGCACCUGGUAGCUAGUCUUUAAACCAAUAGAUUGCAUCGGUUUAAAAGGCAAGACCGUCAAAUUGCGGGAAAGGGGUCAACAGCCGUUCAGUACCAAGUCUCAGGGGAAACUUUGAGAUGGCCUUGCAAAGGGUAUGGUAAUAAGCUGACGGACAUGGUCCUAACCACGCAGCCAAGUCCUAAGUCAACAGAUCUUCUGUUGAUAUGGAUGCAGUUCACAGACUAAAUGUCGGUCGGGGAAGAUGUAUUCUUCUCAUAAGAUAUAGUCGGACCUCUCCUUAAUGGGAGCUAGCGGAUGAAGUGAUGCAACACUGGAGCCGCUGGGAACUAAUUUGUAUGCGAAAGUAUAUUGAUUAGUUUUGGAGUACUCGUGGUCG;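 also: selection with 25 µg/mL kanamycin versus none on LB agar overnight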
- condition.notes: 30 °C
readout: self-splicing fitness (ln)

Some solved cases for reference:
- sequence: "UAUUAGCAAUAUUACGCGAA"
  self-splicing fitness (ln): -2.22
- sequence: "UUCUAGCAAUAUUACGACAC"
  self-splicing fitness (ln): -2.05
- sequence: "UAACAGCAAUAUUACGACUG"
  self-splicing fitness (ln): -0.343

Would you mind giving self-splicing fitness (ln) for every sequence in the list below?
1. GGUUAGCAAUAUUACGAUGG
2. GGAAAGCAAUAUUACGAUUU

Ans.
1: -1.88; 2: -0.238

----------
Would you kindly list self-splicing fitness (ln) for each of these sequences?
- experiment.notes: self-splicing fitness, log relative to wild type (ln ratio); higher = more splicing; Tetrahymena group I intron in knt gene, E. coli kanamycin selection, DiMSum; sequences stand for … in CUCUCU…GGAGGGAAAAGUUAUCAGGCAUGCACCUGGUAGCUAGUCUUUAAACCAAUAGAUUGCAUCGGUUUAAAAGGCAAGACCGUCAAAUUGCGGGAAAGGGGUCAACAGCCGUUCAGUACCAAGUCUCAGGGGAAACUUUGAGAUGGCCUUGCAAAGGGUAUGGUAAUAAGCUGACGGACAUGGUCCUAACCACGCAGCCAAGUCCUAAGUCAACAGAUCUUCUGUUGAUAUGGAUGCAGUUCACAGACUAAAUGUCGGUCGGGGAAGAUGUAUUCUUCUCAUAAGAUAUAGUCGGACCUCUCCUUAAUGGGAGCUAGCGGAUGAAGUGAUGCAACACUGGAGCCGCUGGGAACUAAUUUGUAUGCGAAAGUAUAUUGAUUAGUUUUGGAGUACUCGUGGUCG
- condition.notes: 37 °C
Numbers only.

- sequence: "GCUUAGCAAUAUUACGGAAU"
  measured.value: 0.0941

Would you mind giving self-splicing fitness (ln) for every sequence in the list below?
1. AUGGAGCAAUAUUACGCUAU
2. CCCCAGCAAUAUUACGGUAC
3. UCGAAGCAAUAUUACGGGUU
4. CAGCAGCAAUAUUACGUUGU
5. AUCUAGCAAUAUUACGCUGU
6. UUACAGCAAUAUUACGAGGG
7. AUAAAGCAAUAUUACGAACU

Ans.
1. -2.4
2. -2.66
3. -1.47
4. -1.52
5. -1.17
6. -1.62
7. 0.227
